Tested on: UACC-62 melanoma
Test: NCI-60 one-dose screen, 48 h
Conditions: 10 µM unless noted
The panel holds about 83,000 compounds, 20% with a hit somewhere; the sample as a whole holds those more often. The source made the active and inactive calls. The calls were made as follows: active = growth percent below 10; inactive = the rest.
Outcome codes: 1 (yes) = active, 0 (no) = inactive

>>> print(df.to_string())
                                   compound  qualitative_label
0  CCOc1nc(-c2ccccc2)cc2c(O)c(C(=O)N/N=C/c3ccc(O)cc3O)[nH]c(=O)c12            1 (yes)
1  CCCn1c(=O)[nH]c(N)c([C@H]2c3ccccc3Oc3[nH]c(=O)n(CCC)c(=O)c32)c1=O             0 (no)
2  Cn1cccc1-c1nc2c3c(ccc2[nH]1)C(=O)c1ccccc1C3=O             0 (no)
3      O=C(Nc1ccc(Cl)cc1)c1cc2cc(F)ccc2cc1O             0 (no)
4      O=C(Cn1cccc(Nc2ccccc2)c1=O)Nc1ccccc1             0 (no)
5  COc1cccc(NC(=O)c2sc3nc(C)c(C(C)=O)cc3c2N)c1             0 (no)
6   Fc1ccc(CNc2cccc3[nH]c(C(F)(F)F)nc23)cc1             0 (no)
7              C=C(C)C(=O)Nc1ccc(NC(C)C)cc1             0 (no)
8  O=C1C=C(O)C(=O)C(CC2=C(O)C(=O)C=C(O)C2=O)=C1O             0 (no)
9  Nc1n[nH]c2ccc([C@@H]3Nc4ccc5cn[nH]c5c4[C@H]4C5CCC(C5)[C@@H]34)cc12 (stereo not given in full)             0 (no)

----------
Tested on: ACHN renal
Assay: NCI-60 one-dose screen, 48 h
Details: 10 µM unless noted
About 83,000 compounds went through this panel and 20% of them were active in at least one assay; those are over-represented in the sample as a whole. The source made the active and inactive calls. Rule for the calls: active = growth percent below 10; inactive = the rest.
Possible outcomes: active, inactive

>>> print(df.to_string())
                                   compound  qualitative_label
0  CCCCC(=O)OCC1OC(n2cnc3c(=S)nc[nH]c32)C(OC(=O)CCCC)C1OC(=O)CCCC (stereo not given)           inactive
1  OC(c1cc2cc(Cl)c(Cl)cc2c2cc(C(F)(F)F)ccc12)C1CCCCN1 (stereo not given)             active
2  C#CCOc1ccc2ncnc(NCc3cccc(NC(=O)CCl)c3)c2c1           inactive
3  COc1cc(/C=C/C(=O)Nc2cccnc2Nc2ccc(F)cc2)cc(OC)c1OC           inactive
4                 COc1ccc(O)c(N=Nc2nccs2)c1           inactive

----------
Tested on: T-47D breast
Experiment: NCI-60 one-dose screen, 48 h
Settings: 10 µM unless noted
Compounds without any hit were thinned out: in the full panel of roughly 83,000, 20% have a hit. Activity calls are given as the source filed them. The calls were made as follows: active = growth percent below 10; inactive = the rest.
Labels: active, inactive

>>> df
                            chemical_smiles  qualitative_label
0      O=C(Nc1ccc(Cl)cc1)c1cc2cc(F)ccc2cc1O             active
1  C#CC(F)(F)[C@]1(O)CC[C@H]2[C@@H]3CCC4=CC(=O)CCC4=C3[C@@H](c3ccc(C(C)=O)cc3)C[C@@]21C           inactive
2        C[n+]1ccccc1/C=C/c1ccc2cccc(O)c2n1           inactive
3  O=c1cc(CSc2nnc(-c3ccc(F)cc3)o2)c2ccc3ccccc3c2o1           inactive
4            Clc1ccc2nc3nc4ccc[nH]c4cc3c2c1           inactive

Value source: PubChem BioAssay (NCI)
